target-or-system: human KDR (human, UniProt P35968 20-1356)
Sequence (P35968 20-1356): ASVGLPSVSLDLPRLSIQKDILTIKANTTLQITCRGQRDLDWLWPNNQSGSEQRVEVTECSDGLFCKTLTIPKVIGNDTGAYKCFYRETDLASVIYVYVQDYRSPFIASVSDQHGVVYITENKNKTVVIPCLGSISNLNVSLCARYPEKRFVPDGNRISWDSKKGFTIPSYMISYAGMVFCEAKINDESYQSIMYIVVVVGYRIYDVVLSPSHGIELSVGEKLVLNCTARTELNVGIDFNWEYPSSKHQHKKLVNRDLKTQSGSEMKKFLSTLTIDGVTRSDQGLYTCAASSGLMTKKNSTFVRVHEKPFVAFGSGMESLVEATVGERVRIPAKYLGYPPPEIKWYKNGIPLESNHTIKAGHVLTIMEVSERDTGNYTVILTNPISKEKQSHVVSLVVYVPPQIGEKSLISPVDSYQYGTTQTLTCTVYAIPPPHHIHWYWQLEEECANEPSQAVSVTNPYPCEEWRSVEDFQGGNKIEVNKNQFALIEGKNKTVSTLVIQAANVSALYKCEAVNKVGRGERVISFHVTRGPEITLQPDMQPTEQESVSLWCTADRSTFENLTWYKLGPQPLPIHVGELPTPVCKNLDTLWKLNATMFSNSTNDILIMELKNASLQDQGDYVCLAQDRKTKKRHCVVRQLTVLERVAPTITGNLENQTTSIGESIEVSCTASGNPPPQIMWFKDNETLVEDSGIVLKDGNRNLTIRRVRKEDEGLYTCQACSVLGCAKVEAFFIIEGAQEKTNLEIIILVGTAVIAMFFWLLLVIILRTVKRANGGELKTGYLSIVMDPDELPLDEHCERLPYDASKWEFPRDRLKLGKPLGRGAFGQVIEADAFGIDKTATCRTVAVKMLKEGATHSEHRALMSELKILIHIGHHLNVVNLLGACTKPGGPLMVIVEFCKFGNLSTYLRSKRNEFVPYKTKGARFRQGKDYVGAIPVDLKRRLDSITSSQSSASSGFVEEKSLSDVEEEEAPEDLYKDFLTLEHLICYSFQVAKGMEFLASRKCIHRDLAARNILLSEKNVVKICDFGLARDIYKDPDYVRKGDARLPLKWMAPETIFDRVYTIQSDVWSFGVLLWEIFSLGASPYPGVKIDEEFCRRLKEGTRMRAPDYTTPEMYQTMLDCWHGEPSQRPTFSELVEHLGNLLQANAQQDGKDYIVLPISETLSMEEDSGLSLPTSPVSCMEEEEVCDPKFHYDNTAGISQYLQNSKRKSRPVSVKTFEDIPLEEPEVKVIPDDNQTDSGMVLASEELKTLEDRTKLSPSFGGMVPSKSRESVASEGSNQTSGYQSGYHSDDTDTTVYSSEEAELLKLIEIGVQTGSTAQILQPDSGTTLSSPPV
procedure-summary: cell-based or functional assay
endpoint-label: 6-keto Prostaglandin F1α release, Maximum Inhibition (% Inhibition), N = 2 (333 nM) (%)

binder	readout-units	observed-result
32F4 (antibody, V domains shown, Fully human monoclonal antibody from a XenoMouse hybridoma (IgG2 or IgG4 strain), purified) VH: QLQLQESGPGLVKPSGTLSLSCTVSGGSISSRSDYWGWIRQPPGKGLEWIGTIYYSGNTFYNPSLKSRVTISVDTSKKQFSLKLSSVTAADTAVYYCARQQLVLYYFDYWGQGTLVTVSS VL: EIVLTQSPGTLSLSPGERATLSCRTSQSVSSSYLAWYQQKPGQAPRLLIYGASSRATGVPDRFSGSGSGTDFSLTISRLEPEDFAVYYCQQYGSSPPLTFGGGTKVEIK	%	54
21H6 (antibody, V domains shown, Fully human monoclonal antibody from a XenoMouse hybridoma, purified) VH: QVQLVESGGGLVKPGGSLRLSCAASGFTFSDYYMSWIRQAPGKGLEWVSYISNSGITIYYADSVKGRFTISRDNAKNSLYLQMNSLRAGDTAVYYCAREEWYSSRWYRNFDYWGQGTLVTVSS VL: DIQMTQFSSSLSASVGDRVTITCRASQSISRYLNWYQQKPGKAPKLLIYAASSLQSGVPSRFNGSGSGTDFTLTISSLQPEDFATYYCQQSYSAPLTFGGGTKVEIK	%	75
33E1 (antibody, V domains shown, Fully human monoclonal antibody from a XenoMouse hybridoma (IgG2 or IgG4 strain), purified) VH: QVQLQESGPGLVKPSQTLSLTCTVSGGSISSGDHYWSWIRQHPGKGLEWIGHIYYSGSTDYNPSLKSRVTISVDTSKNHFSLKLNSVTAADTAVYYCARTNSSSWSDWYFDLWGRGTLVTVSS VL: DIVMTQSPDSLAVSLGERATINCKSSQSILYSSNNKNYLAWYQRKPGQPPILLIHWASTRESGVPDRFSGSGSRTDFTLTISSLQAEDVAVYYCQQYFITPWTFGQGTKVEIK	%	103
